Measured GI50 of individual entries
test system: MDA-MB-435; test: NCI tumour cell line growth inhibition, 48 h
Activity calls are given as the source filed them. No stated cut-off is given here; in the data, active = GI50 up to about 1.1 µM and inactive = higher.
parameter.measured: GI50

- CNC(=O)C1CCCN1C(=O)C(Cc1c[nH]cn1)NC(=O)C1CCC(=O)N1 (stereo unspecified): > 100 µM (inactive)
- CC(=O)N1N=C(c2c(O)ccc3ccccc23)CC1C(=O)c1ccco1 (stereo unspecified): 28.5 µM (inactive)
- CC(=O)OC1(C)N=NC2(CCCCC2)O1 (stereo unspecified): > 100 µM (inactive)
- N#CC(=N)c1ncn(CCO)c1NC(=O)C(F)(F)F: > 100 µM (inactive)
- CC12CCCC(O)C1CCC1=CC3(CCC12)SCCS3 (stereo unspecified): > 10 µM (inactive)
- O=P(O)(O)OP(=O)(O)O: > 100 µM (inactive)

====

system: A498; experiment: NCI tumour cell line growth inhibition, 48 h
The source made the active and inactive calls. No stated cut-off is given here; in the data, active = GI50 up to about 1.1 µM and inactive = higher. Peptide text beside a SMILES is read from it. * marks the point of attachment. Boc = CC(C)(C)OC(=O)*
Possible outcomes: active, inactive

- CC1SCCc2nc3ccccc3n21 (stereo not drawn): inactive
- COc1ccc2c(ccc3c(COC(=O)NC(C)C)c(COC(=O)NC(C)C)n(C)c32)c1: inactive
- NS(=O)(=O)c1ccc(NC(=O)N/N=C/c2ccccc2O)cc1: inactive
- N/C(=N\O)N/N=C\c1cc([N+](=O)[O-])cc([N+](=O)[O-])c1O: inactive
- C=C(C)[C@H]1CC(=O)/C(C)=C\CC/C(C)=C/CC[C@@]2(C)O[C@@H]2C1: inactive
- CC1(Sc2ccccc2)CN(Cc2ccccc2)C1=O (stereo not drawn): inactive
- O=NN(CCCl)C(=O)N[C@H]1CC[C@@H](C(=O)O)CC1: inactive
- CC1(C)CC2CC(CC(C)(C)C2=O)C1=O: inactive
- Nc1ncnc2c1nc(Cl)n2C1OC(CO)C(O)C1O (stereo not drawn): inactive
- CCO/C=C1\N=C(C(Cl)c2ccccc2)OC1=O (stereo not drawn): inactive
- O=C(CC1(O)C(=O)Nc2ccccc21)c1ccccc1O (stereo not drawn): inactive
- Cc1nnc(N)nc1/C=C/c1c(O)ccc2ccccc12: inactive
- O=C1Cc2c(-c3ccccc3)cc(-c3cccc(Cl)c3)nc2-c2ccccc2N1: inactive
- COc1ccc(/C=C(\NC(=O)c2ccccc2)c2nc3ccccc3[nH]2)cc1: inactive
- CC(C#N)Nc1ccc(Oc2ccc(C(C)(C)c3ccc(Oc4ccc(NC(C)C#N)cc4)cc3)cc2)cc1 (stereo not drawn): inactive
- CCCc1cc(O)c2c(C)c3[nH]c4ccc(Cl)cc4c3c(C)c2n1: inactive
- COc1ccc(P2(=S)OCCOP(=S)(c3ccc(OC)cc3)S2)cc1 (stereo not drawn): inactive
- Oc1ccccc1-c1nn2c(CCCCCCCCc3nnc4sc(-c5ccccc5O)nn34)nnc2s1: inactive
- COC(=O)c1c(C)cccc1C1CN=NC12Cc1ccccc1C2=O (stereo not drawn): inactive
- O=C(C(Cl)=C(Nc1ccccc1)Nc1ccccc1)C(Cl)Cl: inactive
- CC(=O)NCC1(c2ccccc2)CCN(CC2COc3ccccc3O2)CC1 (stereo not drawn): inactive
- CCSC1=N/C(=C\c2ccco2)C(Nc2ccc(C)cc2)=N1: inactive
- O=C1N[C@H]2C(=O)c3c(Cl)sc(Cl)c3[C@H]2O1: inactive
- CCCNC(=O)CCC(C)[C@H]1CCC2C3C(C[C@H](OC(C)=O)[C@@]21C)[C@@]1(C)CCC2(C[C@H]1C[C@H]3OC(C)=O)OOC1(CCC(C)CC1)OO2 (stereo partly drawn): inactive
- Clc1ccc(Nc2nnc(CNc3ccc(-c4nnc(Nc5ccc(Cl)cc5)o4)cc3)o2)cc1: inactive
- CSCCC(NC(=O)C(CC(C)C)NC(=O)CNC(=O)OC(C)(C)C)C(=O)N(C)C (stereo not drawn) (Boc-Gly-Leu-Met-NMe2; configuration not given here): inactive
- OC1(c2ccccc2)c2ccccc2N=C2NCCN21 (stereo not drawn): inactive
- C1=Nc2sc3c(c2C2=NCCN12)CCCC3: inactive
- O=C(c1ccccc1)N1C(=S)N(c2ccccn2)C(=N/c2ccccc2)/C1=N\c1ccccc1: inactive
- O=C(N/N=C/C=C/c1ccc([N+](=O)[O-])o1)c1ccc(Br)s1: inactive
- O=C(O)c1ccccc1C(=O)c1ccco1: inactive
- COc1c(I)c(OC)c2c(c1I)O[C@@H]1OCC[C@H]21: inactive
- COc1cc(/C=C/C2=C(C#N)C(=O)OC2(C)C)ccc1O: inactive
- C[N+](C)(C)c1nc(N)nc2c1ncn2C1OC(CO)C(O)C1O (stereo not drawn): inactive
- Cc1cc2c(=O)cc(-c3cccs3)oc2c(C(=O)O)c1C: inactive
- C[C@@H](c1ccccc1)N(CC#N)C1CCC[C@H]1O (stereo partly drawn): inactive
- O/N=C1/C(=C/c2ccccc2)CCCC1C(NO)c1ccccc1 (stereo not drawn): inactive
- COc1cccc2c1C(=O)c1c(O)c3c(c(O)c1C2=O)C[C@@](O)(/C(C)=N\O)C[C@@H]3OC1CC(N)C(O)C(C)O1 (stereo partly drawn): active
- COC(=O)c1ccccc1/C=C1\Cc2cc(C)c(C)cc2C1=O: inactive
- c1cnn(C23C4C5C6C4C2C6C53)c1 (stereo not drawn): inactive
- CC12CC3c4ccccc4CN1C3(c1ccccc1)OC2=O (stereo not drawn): inactive
- CN1CCN([C@H]2C[C@H]3[C@@H]4CC=C5C[C@@H](N6CCCC6)CC[C@]5(C)[C@H]4CC[C@]3(C)[C@H]2O)CC1: inactive
- O=C(NNC(=S)Nc1ccc(Cl)cc1)C12CC3CC(CC(C3)C1)C2: inactive

====

system: UACC-62; assay: NCI tumour cell line growth inhibition, 48 h
Activity calls are given as the source filed them. Rule as the data show it: active = GI50 up to about 1.1 µM and inactive = higher.
Possible outcomes: yes (active), no (inactive)

* O=S(=O)(O)c1ccc(-c2nnc(-c3ccccn3)nc2-c2ccc(S(=O)(=O)O)o2)o1 | no
* Cc1nc(O)c(O)c(CN2CCCCC2)n1 | no
* Cc1c(N=NN(C)C)cc[n+]([O-])c1C | no
* COC(=O)C1=COC2OC3/C(=C\c4ccc(O)c(OC)c4)C(=O)OC34C=CC1C24 (stereo unspecified) | no
* COC(=O)c1c(C)cccc1C1CN=NC12Cc1ccc(C)cc1C2=O (stereo unspecified) | no
* [O-][n+]1ccccc1Sc1nc(Sc2cccc[n+]2[O-])nc(Sc2cccc[n+]2[O-])n1 | no
* CC(C)Cn1cnc2c(NCC(C)O)nc3ccccc3c21 (stereo unspecified) | no
* CCN(CC)CCNC(=O)c1cc2cc(NC(=O)c3cc4cc(N)ccc4[nH]3)ccc2[nH]1 | no
* COc1cc(/C=C2\NC(=O)C(Cc3cc(OC)c(OC)c(C)c3OC)N(C(C)=O)C2=O)c(OC)c(C)c1OC (stereo unspecified) | no
* COc1ccc(Nc2nn3c(=O)c4c(C)c(C)sc4nc3s2)cc1 | no
* C#CC(C)(C)Oc1cc(O)c2c(=O)c3ccccc3n(C)c2c1 | no
* NC(=O)C1(c2ccccc2)Nc2ccccc2S1 (stereo unspecified) | no
* O=C(NCCCCCCCCCCCCNC(=O)c1cccc2ccccc12)c1cccc2ccccc12 | no
* COc1ccc2nc(-c3cccc(N(C)C)c3)cc(O)c2c1 | yes
* Nc1nc(N)c2ncn(-c3ccc(Cl)c(Cl)c3)c2n1 | no
* CN(C)CCCNC(=O)c1cc2/c(=C\c3ccc(N(C)C)cc3)c3ccccc3n2[n+]1C | no
* O=C(O)c1ccc(C(=O)O)c(C(=O)Nc2ccc3c(c2)C(=O)c2ccccc2-3)c1 | no
* CCN1CCC(O)(c2ccc(Oc3ccccc3)cc2)C(C(=O)c2ccc(Oc3ccccc3)cc2)C1 (stereo unspecified) | no
* O=NN(CCCl)C(=O)N[C@H]1CC[C@@H](C(=O)O)CC1 | no
* Cc1cccc(C2ON=C(c3ccccc3)N2C23CC4CC(CC(C4)C2)C3)c1 (stereo unspecified) | no
* Cc1nnc(N)nc1/C=C/c1c(O)ccc2ccccc12 | no
* O=c1cnn(C2OC(CO)C(O)C2O)c(=S)[nH]1 (stereo unspecified) | no
* Cc1cccc(C(C)C)c1NC(=O)C(=O)CC(=O)c1c(C)[n+]([O-])c2ccccc2[n+]1[O-] | no
* COc1cc(Nc2cnc3cc(C(F)(F)F)ccc3n2)cc(OC)c1OC | no
* NCCCN(CCCN)CCc1cn(C(=O)c2ccccc2)cn1 | no
* BrC1=CC=C2NC=CC3=CC=NC1C32 (stereo unspecified) | no
* COC1=CC(=O)C2C(C1=O)C(c1ccc(Cl)cc1)[C@@H]2C (stereo partly specified) | no
* C[Si](C)(C)c1ccc(-c2c3ccc(-c4cc(Br)cc(Br)c4)nc3nc3nc(-c4cc(Br)cc(Br)c4)ccc23)cc1 | no
* CO[C@H]1C[C@](C)(O)Cc2cc3c(c(O)c21)C(=O)c1c(O)cc2c(c1C3=O)O[C@@H]1O[C@@]2(C)[C@H](O)[C@@H](N(C)C)[C@@H]1O | yes
* Cc1ccc2c(O)cc(-c3cc(C)sc3C)nc2n1 | no
* CC1(C)CC(=O)C/C(=N/c2ccc([N+](=O)[O-])cc2)C1 | no
* COc1cccc2c1C(=O)c1c(O)c3c(c(O)c1C2=O)C[C@@](O)(/C(C)=N/NC(=O)c1ccc(Cl)c(Cl)c1)C[C@@H]3OC1CC(N)C(O)C(C)O1 (stereo partly specified) | yes
* COC(=O)C1=C(O)C(C(=O)OC)[C@]2(O)[C@@H](C(=O)OC)[C@H]1C[C@@H](c1ccccc1)[C@@H]2C(=O)OC (stereo partly specified) | no
* COC(=O)c1cc(Br)c(Br)n1C | no
* CN(Cc1cnc2nc(N)nc(N)c2n1)c1ccc(C(=O)NC2CCCCC2)cc1 | no
* C/C=C1/CC(C(=O)OC)N(C(=O)OCc2ccccc2)C1=S (stereo unspecified) | no
* C/C(=C/c1ccccc1)CN(C(=O)/C=C\Sc1ccccc1)C(C)(C)C | no
* COc1ccc(/C=N/Nc2nc(-c3cc4oc(=O)n(C)c4cc3Cl)cs2)cc1OC | no
* CC(CCCCNC(=O)OC(C)(C)C)NC(=O)NC(C)CCCCNC(=O)OC(C)(C)C (stereo unspecified) | no
* O=C(O)CN(CCNC(=O)OCC1c2ccccc2-c2ccccc21)CCNC(=O)OCC1c2ccccc2-c2ccccc21 | no
* CNc1c2cccc(C)c2nc2c(C(=O)NCCN(C)C)cccc12 | yes
